Test: budding yeast growth modifiers under rapamycin – strain BY4716, OD600, 96 h, primary screen (AID 1091); also: test concentration not given here
Settings: S. cerevisiae BY4716 + rapamycin, higher = more signal, called active from +8 up or from −8 down
Quick rule: z-score of at least -0.1 means true, below that means false.

// below: answered molecules
## Input Say whether `CC(C)CN1C(=O)[C@@]2(c3ccc([N+](=O)[O-])cc3)CC(=O)N(C3CCCCC3)[C@@H]2c2ccc(CO)cc21` shows z-score of -0.1 or more.
## Output false

## Input Check this molecule for z-score at or above -0.1: `C=C(/C(=C/C[C@H](OC(C)=O)c1ccc(OCCO)cc1)c1cc(C(=O)OC)ccc1OC)C(C)C`
## Output false

## Input Check this molecule for z-score at or above -0.1: CCCC1(C(=O)OC)C=C2C(=C(c3ccccc3)C(=O)C2C)CN1 (stereo not drawn)
## Output true

Further cases:
## Input In plain terms: is recorded z-score at least -0.1 for `NC(=O)[C@@]1(Cc2ccccc2)N=C(c2ccc(OCCCO)cc2)O[C@H]1c1ccccc1` ?
## Output true

## Input Check if z-score >= -0.1 (inclusive). Item: `COC(=O)c1c(CC[C@@H](CO)NC(=O)NCCc2c[nH]c3ccccc23)oc(C(=O)Cc2ccccc2)c1C(=O)OC`
## Output false

---

Experiment: plasmodial surface anion channel blockers, osmotic lysis – cell-based, P. falciparum Indochina, OD700, 2 h, primary screen (AID 1155);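 also: lysis reports solute entry through the parasite surface anion channel PSAC; channel blockers reduce lysis of infected cells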
Conditions: P. falciparum Indochina infected erythrocytes, higher = more signal, called active from +8 up or from −8 down
z-score values, listed per item
// no unit, no text: just the number

## Input Fill blank: measured z-score of the molecule `CC(C)Cc1ccc(CN2CC[C@@H](N)C2)cc1` is ____.
## Output 0.933

Others:
## Input z-score lookup needed for `COc1ccc([Si](C)(C)[C@H]2[C@H](CCO)O[C@@]3(C(=O)N(Cc4ccccc4)c4ccc(N5CCCCC5=O)cc43)[C@@H]2C)cc1` , thanks.
## Output 2.24

## Input Reported z-score for `COc1ccc([Si](C)(C)[C@H]2[C@H](CCn3cc([C@H](O)c4ccccc4)nn3)O[C@@]3(C(=O)N(C)c4ccccc43)[C@@H]2C)cc1` : what is it?
## Output 1.5

## Input For the molecule shown here, `O=C(CS)NCCCCCNC(=O)[C@@H]1C[C@@H]2C(=O)NCC(=O)N2[C@@H]1c1cccc(OCCO)c1` , give the reported z-score.
## Output 0.151

---

Molecular target: Torsin-1A (Homo sapiens) (UniProt O14656)
Sequence (O14656 whole entry, looked up): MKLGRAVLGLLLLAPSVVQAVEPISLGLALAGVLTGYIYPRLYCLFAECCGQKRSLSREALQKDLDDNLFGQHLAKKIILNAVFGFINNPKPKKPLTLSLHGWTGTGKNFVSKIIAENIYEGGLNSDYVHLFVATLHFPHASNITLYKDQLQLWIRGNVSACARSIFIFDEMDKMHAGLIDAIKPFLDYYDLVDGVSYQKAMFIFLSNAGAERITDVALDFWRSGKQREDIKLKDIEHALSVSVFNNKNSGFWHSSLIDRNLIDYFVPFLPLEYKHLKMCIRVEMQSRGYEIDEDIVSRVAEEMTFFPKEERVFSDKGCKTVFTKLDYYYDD
Assay: torsin A mutant lysate binding on microarrays – cell lysate, small-molecule microarray, COS7 lysate, 635/667 nm fluorescence, primary screen (AID 1150);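 also: score pools 667 nm emission and signal to noise measuring lysate protein binding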
Settings: COS7 hTOR1A mutant lysate, 635 nm fluorescence, higher = more signal
composite z-score below 0.4 gives label 0; composite z-score at or above it gives label 1.

For orientation, consider the following solved cases.
## Input Does O=C1NC(=O)C2C1C=CC(C(O)c1ccc(I)cc1)N2Nc1ccc(Cl)cc1Cl (stereo unspecified) have a reported composite z-score of at least 0.4?
## Output label 0

## Input Hi team, for `CC(C)(C)OC(=O)CC[C@]1(C(N)=O)N=C(c2ccc(OCCCO)cc2)O[C@H]1c1ccccc1` , is the recorded composite z-score at or above 0.4?
## Output label 1

## Input Entry O=C1C2C=CC(C(O)C=Cc3ccc([N+](=O)[O-])cc3)N(Nc3ccccc3F)C2C(=O)N1c1ccccc1 (stereo unspecified) : is its composite z-score no less than 0.4?
## Output label 0

## Input Textbook exercise: given the entry `C[N+](C)(C)CCCC[C@@H]1NC(=O)[C@H]2C[C@@H](C(=O)NCCCCCCNC(=O)CS)[C@@H](c3ccc(O)cc3)N2C1=O` , state whether its composite z-score is greater than or equal to 0.4.
## Output label 1

## Input hey, is composite z-score for this one >= 0.4? `C#CCN1[C@H](/C=C/C2CC2)[C@H](Cc2ccccc2)OC(=O)[C@@H]1Cc1ccccc1`
## Output label 1

Continuing:
## Input Determine whether measured composite z-score meets or exceeds 0.4 for CCOc1ccc(N2C(=O)CSC2c2cccc([N+](=O)[O-])c2)cc1 (stereo unspecified)
## Output label 1

## Input Record `C[N+](C)(C)CCCCCCNC(=O)[C@H]1C[C@H]2C(=O)N[C@@H](Cc3ccccc3)C(=O)N2[C@H]1c1cccc(OCCO)c1` ; criterion: composite z-score no lower than 0.4. Met?
## Output label 1

## Input API: above_or_equal(metric=composite z-score, cutoff=0.4) for item `[N-]=[N+]=Nc1ccccc1C[C@@]1(C(=O)N2CCCCC2)N=C(c2ccc(OCCCO)cc2)O[C@@H]1c1ccccc1N=[N+]=[N-]`
## Output label 1

## Input # bool: composite z-score of `C=C(CCCC)/C(=C/C[C@H](OC(C)=O)c1ccccc1OCCO)c1cnc2ccccc2c1` >= 0.4
## Output label 1

## Input Determine whether measured composite z-score meets or exceeds 0.4 for `COCCOC(=O)N1C(=O)[C@@]2(c3ccccc31)[C@H](C(=O)N1CCc3cc(OC)c(OC)cc3C1)[C@H]1C(=O)O[C@H](c3ccccc3)[C@H](c3ccccc3)N1[C@@H]2c1ccc(O)cc1`
## Output label 1

## Input Hello, I need to know if `C=CCNC(=O)[C@@H]1[C@H]2C(=O)O[C@H](c3ccccc3)[C@H](c3ccccc3)N2[C@H](c2ccc(OCCO)cc2)[C@@]12C(=O)N(C(=O)OCCOC)c1ccc(C#CCC(C(=O)OC)C(=O)OC)cc12` has measured composite z-score not below 0.4. Thanks!
## Output label 1

## Input composite z-score >= 0.4 for `COc1ccc([Si](C)(C)[C@H]2[C@H](CC(=O)N3CCC[C@H]3CO)O[C@@]3(C(=O)N(Cc4cccc(N5CCOC5=O)c4)c4ccccc43)[C@@H]2C)cc1` ?
## Output label 1

## Input Form field: composite z-score at least 0.4? Entry: `CCCCC(=C=CC[C@@H](O)c1cccc(OCCO)c1)C[C@@H](O)c1ccccn1`
## Output label 1

## Input Determine whether this molecule has composite z-score no lower than 0.4: `C=C(CCCC)C(=O)CC[C@@H](OC(C)=O)c1ccc(CO)o1`
## Output label 0

## Input Is the recorded value of composite z-score equal to or greater than 0.4 for this molecule? N#Cc1ccc(C(O)C2C=CC3C(=O)N(c4ccccc4)C(=O)C3N2Nc2ccccc2F)cc1 (stereo unspecified)
## Output label 0

---

Assay: small molecules captured by biotinylated probe aFGF2 – biochemical, small-molecule microarray, fluorescence 635/667, stem cell growth factor project, primary screen (AID 1067);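 also: measures binding of biotinylated aFGF2 protein to printed compounds on slides; z-score merges feature fluorescence and signal-to-noise across triplicate slides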
Conditions: higher = more signal
reported_endpoint: composite z-score
Reply: number alone, nothing else.

// below: answered compounds
## Input Give the measured composite z-score of `COCC(=C=CC[C@H](O)c1ccccc1OCCO)CCO` .
## Output -0.0747

## Input Which composite z-score reading was recorded for the compound `CN(C)CCCC[C@@H]1NC(=O)[C@H]2C[C@@H](C(=O)NCCCCCN)[C@@H](c3cccc(OCCO)c3)N2C1=O` ?
## Output 0.269

## Input Given the compound `O=C1O[C@@H](c2ccccc2)[C@@H](c2ccccc2)N2[C@@H](c3ccc(OCCO)cc3)[C@]3(C(=O)Nc4ccc(C#CCCO)cc43)[C@@H](C(=O)NC[C@H](O)c3ccccc3)[C@H]12` , what is its reported composite z-score?
## Output -0.0281

Next:
## Input Would you mind telling me what composite z-score value was observed for `Cc1ccc(/C=C/C=O)cc1` ?
## Output -0.0704

## Input Could you share which composite z-score value was measured for `O=C1O[C@H](c2ccccc2)[C@H](c2ccccc2)N2[C@H]1[C@@H](C(=O)NC[C@H](O)c1ccccc1)[C@]1(C(=O)Nc3ccc(C#CC4=CCCCC4)cc31)[C@H]2c1ccccc1OCCO` ?
## Output 0.0637

## Input Query (compound): `COc1ccc(C(=O)Nc2ccc(CN3C(=O)[C@]4(O[C@H](CC(=O)N5CCC[C@H]5CO)[C@@H]([Si](C)(C)c5ccc(OC)cc5)[C@@H]4C)c4ccccc43)cc2)cc1` ; field requested: composite z-score
## Output -0.0715

## Input Record request: composite z-score value, item `Cc1c(NC(=O)/C(C#N)=C/c2cccc([N+](=O)[O-])c2)c(=O)n(-c2ccccc2)n1C`
## Output -0.112

## Input Find the recorded composite z-score belonging to `C=C(CCCC)/C(=C/C[C@@H](OC(C)=O)c1cccc(OCCO)c1)c1cnc2ccccc2c1` and report it.
## Output -0.0015

---

Let's look at some compounds and their measured composite z-score.
Target: Dihydroorotate dehydrogenase (quinone), mitochondrial (Plasmodium falciparum (isolate 3D7)) (UniProt Q08210)
Sequence (Q08210 whole entry, looked up): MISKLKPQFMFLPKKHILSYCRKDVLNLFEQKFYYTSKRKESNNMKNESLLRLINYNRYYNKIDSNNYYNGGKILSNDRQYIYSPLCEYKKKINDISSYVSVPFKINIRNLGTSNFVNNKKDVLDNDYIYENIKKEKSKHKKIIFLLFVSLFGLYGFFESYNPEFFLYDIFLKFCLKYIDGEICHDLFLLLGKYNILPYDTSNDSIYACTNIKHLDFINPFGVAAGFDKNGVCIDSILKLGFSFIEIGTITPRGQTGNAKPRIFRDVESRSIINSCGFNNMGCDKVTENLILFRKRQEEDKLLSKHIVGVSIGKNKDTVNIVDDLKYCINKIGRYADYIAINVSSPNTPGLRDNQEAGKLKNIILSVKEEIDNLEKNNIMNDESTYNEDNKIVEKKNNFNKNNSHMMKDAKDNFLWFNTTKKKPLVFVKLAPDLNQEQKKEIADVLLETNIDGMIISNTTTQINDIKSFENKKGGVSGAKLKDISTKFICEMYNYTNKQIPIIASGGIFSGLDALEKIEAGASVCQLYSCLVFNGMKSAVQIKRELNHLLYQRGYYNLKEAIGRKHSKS
Experiment: inhibition of P. falciparum DHODH – biochemical, C-terminal His tag, absorbance 600 nm, primary screen (AID 1175);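 also: recombinant parasite enzyme with a five histidine tag at its C terminus; test concentration not given here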
Details: PfDHODH enzyme, DCIP absorbance 600 nm; higher = more signal, called active from +8 up or from −8 down
In your answer, state the number alone without any accompanying words.

## Input Given `O=C(NC1CC1)[C@@H]1c2ccccc2C(=O)N(Cc2cc(F)cc(C(F)(F)F)c2)[C@H]1c1ccc(CO)cc1` , state its recorded composite z-score.
## Output -0.323

Further cases:
## Input Which value of composite z-score has been reported for `COc1ccc([C@H]2OC[C@@H]3CCC(=O)N32)cc1` in the records?
## Output -0.0915

## Input Form field: reported composite z-score of CCCCN1CC=CC23O[C@@H]4/C=C\CCCOC(=O)C4[C@H]2C(=O)N(CCCO)[C@@H]3C1=O (some centres undefined)
## Output 0.119

## Input Endpoint output: composite z-score of `COCCOC(=O)N1C(=O)[C@@]2(c3ccccc31)[C@H](c1ccc(OCCO)cc1)N1[C@H](c3ccccc3)[C@H](c3ccccc3)OC(=O)[C@H]1[C@@H]2C(=O)N1CCc2cc(OC)c(OC)cc2C1` . Value?
## Output -2.08

Attribution: PubChem BioAssay
